Target: Mu-type opioid receptor (Homo sapiens, UniProt P35372)
Sequence (P35372 whole entry): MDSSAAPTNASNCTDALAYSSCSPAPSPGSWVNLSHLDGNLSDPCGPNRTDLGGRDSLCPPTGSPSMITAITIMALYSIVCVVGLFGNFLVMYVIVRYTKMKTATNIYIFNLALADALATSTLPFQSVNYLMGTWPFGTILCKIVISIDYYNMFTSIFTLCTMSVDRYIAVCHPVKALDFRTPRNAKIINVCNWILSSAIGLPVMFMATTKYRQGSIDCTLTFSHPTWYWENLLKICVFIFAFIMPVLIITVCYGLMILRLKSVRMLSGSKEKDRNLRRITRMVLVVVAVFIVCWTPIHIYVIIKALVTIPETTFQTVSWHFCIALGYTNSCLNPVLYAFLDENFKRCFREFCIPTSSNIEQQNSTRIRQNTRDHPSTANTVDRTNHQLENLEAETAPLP
Experiment: Agonist activity at human MOR expressed in CHO cell membranes assessed as stimulation of [35S]-GTPgammaS binding incubated for 1 hr by liquid scintillation counting assay relative to DAMGO
Format: functional
Settings: filed as agonist, time 60.0 min
Numbered stars: 1 amine (or outer) side, 2 acyl side, 3 side chain; on linkers, the order of the positions; unused ones are H or OH. Square brackets hold non-standard residues; d marks the D form. Peptide text beside a SMILES is read from it. X1 = O=C1[C@@H](N[*:1])Cc2ccccc2CN1CCC(=O)[*:2]; Dmt = Cc1cc(O)cc(C)c1C[C@H](N)C(=O)O; mTyr = N[C@@H](Cc1cccc(O)c1)C(=O)O; β3hR = N=C(N)NCCC[C@H](N)CC(=O)O; Tle = CC(C)(C)[C@H](N)C(=O)O

molecule	display unit	Emax
Cc1cc(O)cc(C)c1C[C@H](NC(=O)[C@@H]1CCCN1C(=O)[C@H](CCCNC(=N)N)NC(=O)C[C@H](CCCNC(=N)N)NC(=O)CCN1Cc2ccccc2C[C@H](NC(=O)[C@@H](CCCNC(=N)N)NC(=O)[C@@H](N)Cc2c(C)cc(O)cc2C)C1=O)C(=O)N[C@H](C(=O)N[C@@H](CC(C)C)C(=O)O)C(C)(C)C (H-[Dmt][dR][X1][β3hR]RP[Dmt][Tle]L-OH)	%	94
Cc1cc(O)cc(C)c1C[C@H](N)C(=O)N[C@H](CCCNC(=N)N)C(=O)N[C@H]1Cc2ccccc2CN(CCC(=O)N[C@@H](CCCNC(=N)N)C(=O)N[C@@H](CCCNC(=N)N)C(=O)N2CCC[C@H]2C(=O)N[C@@H](Cc2ccc(O)cc2)C(=O)N[C@H](C(=O)N[C@@H](CC(C)C)C(=O)O)C(C)(C)C)C1=O (H-[Dmt][dR][X1]RRPY[Tle]L-OH)	%	94
Cc1cc(O)cc(C)c1C[C@H](N)C(=O)N[C@H](CCCNC(=N)N)C(=O)N[C@H]1Cc2ccccc2CN(CCC(=O)N[C@@H](CCCCN)C(=O)N[C@@H](CCCCN)C(=O)N2CCC[C@H]2C(=O)N[C@@H](Cc2cccc(O)c2)C(=O)N[C@H](C(=O)N[C@@H](CC(C)C)C(=O)O)C(C)(C)C)C1=O (H-[Dmt][dR][X1]KKP[mTyr][Tle]L-OH)	%	87
Cc1cc(O)cc(C)c1C[C@H](N)C(=O)N[C@H](CCCNC(=N)N)C(=O)N[C@H]1Cc2ccccc2CN(CCC(N)=O)C1=O	%	100

###

Catalogue of molecules with associated Ki
Target: Delta-type opioid receptor (Homo sapiens, UniProt P41143)
Sequence (P41143 whole entry): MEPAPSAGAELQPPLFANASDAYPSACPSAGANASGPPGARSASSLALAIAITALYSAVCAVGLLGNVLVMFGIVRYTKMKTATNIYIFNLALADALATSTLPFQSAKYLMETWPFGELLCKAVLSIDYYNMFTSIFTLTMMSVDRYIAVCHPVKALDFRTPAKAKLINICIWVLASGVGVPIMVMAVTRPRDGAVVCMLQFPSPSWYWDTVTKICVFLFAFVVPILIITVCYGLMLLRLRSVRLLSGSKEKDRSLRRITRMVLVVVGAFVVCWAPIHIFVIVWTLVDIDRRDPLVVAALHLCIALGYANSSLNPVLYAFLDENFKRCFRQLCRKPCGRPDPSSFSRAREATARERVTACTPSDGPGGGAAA
Assay: Displacement of [3H]-Diprenorphine from recombinant human delta opioid receptor expressed in CHO cell membrane incubated for 60 mins by liquid scintillation counting method
Numbered stars: 1 amine (or outer) side, 2 acyl side, 3 side chain; on linkers, the order of the positions; unused ones are H or OH. Square brackets hold non-standard residues; d marks the D form. Peptide text beside a SMILES is read from it. X1 = O=C1[C@@H](N[*:1])Cc2ccccc2CN1CCC(=O)[*:2]; X2 = O=C([C@@H]1Cc2cc(O)ccc2CN1[*:1])[*:2]; Dmt = Cc1cc(O)cc(C)c1C[C@H](N)C(=O)O; mTyr = N[C@@H](Cc1cccc(O)c1)C(=O)O; Tle = CC(C)(C)[C@H](N)C(=O)O; β3hK = NCCCC[C@H](N)CC(=O)O
observed property: Ki (nM)

molecule	experimental system	observed result
Cc1cc(O)cc(C)c1C[C@H](N)C(=O)N[C@H](CCCNC(=N)N)C(=O)N[C@H]1Cc2ccccc2CN(CCC(=O)N[C@@H](CCCCN)C(=O)N[C@@H](CCCCN)C(=O)N2CCC[C@H]2C(=O)N[C@@H](Cc2cccc(O)c2)C(=O)N[C@H](C(=O)N[C@@H](CC(C)C)C(=O)O)C(C)(C)C)C1=O (H-[Dmt][dR][X1]KKP[mTyr][Tle]L-OH)	Delta-type opioid receptor (Homo sapiens, UniProt P41143)	200
Cc1cc(O)cc(C)c1C[C@H](N)C(=O)N[C@H](CCCNC(=N)N)C(=O)N[C@H]1Cc2ccccc2CN(CCC(=O)N[C@@H](CCCNC(=N)N)C(=O)N[C@@H](CCCNC(=N)N)C(=O)N2CCC[C@H]2C(=O)N[C@@H](Cc2ccc(O)cc2)C(=O)N[C@H](C(=O)N[C@@H](CC(C)C)C(=O)O)C(C)(C)C)C1=O (H-[Dmt][dR][X1]RRPY[Tle]L-OH)	Delta-type opioid receptor (Homo sapiens, UniProt P41143)	56.4
Cc1cc(O)cc(C)c1C[C@H](NC(=O)[C@@H]1CCCN1C(=O)[C@H](CCCCN)NC(=O)C[C@H](CCCCN)NC(=O)CCN1Cc2ccccc2C[C@H](NC(=O)[C@@H](CCCNC(=N)N)NC(=O)[C@@H](N)Cc2c(C)cc(O)cc2C)C1=O)C(=O)N[C@H](C(=O)N[C@@H](CC(C)C)C(=O)O)C(C)(C)C (H-[Dmt][dR][X1][β3hK]KP[Dmt][Tle]L-OH)	Delta-type opioid receptor (Homo sapiens, UniProt P41143)	48.6
Cc1cc(O)cc(C)c1C[C@H](N)C(=O)N[C@H](CCCNC(=N)N)C(=O)N[C@H]1Cc2ccccc2CN(CCC(=O)N[C@@H](CCCCN)C(=O)N[C@@H](CCCCN)C(=O)N2CCC[C@H]2C(=O)N[C@@H](Cc2ccc(O)cc2)C(=O)N[C@H](C(=O)N[C@@H](CC(C)C)C(=O)O)C(C)(C)C)C1=O (H-[Dmt][dR][X1]KKPY[Tle]L-OH)	Delta-type opioid receptor (Homo sapiens, UniProt P41143)	213
Cc1cc(O)cc(C)c1C[C@H](NC(=O)[C@@H]1CCCN1C(=O)[C@H](CCCNC(=N)N)NC(=O)[C@H](CCCNC(=N)N)NC(=O)CCN1Cc2ccccc2C[C@H](NC(=O)[C@@H](CCCNC(=N)N)NC(=O)[C@@H](N)Cc2c(C)cc(O)cc2C)C1=O)C(=O)N[C@H](C(=O)N[C@@H](CC(C)C)C(=O)O)C(C)(C)C (H-[Dmt][dR][X1]RRP[Dmt][Tle]L-OH)	Delta-type opioid receptor (Homo sapiens, UniProt P41143)	159
Cc1cc(O)cc(C)c1C[C@H](N)C(=O)N[C@H](CCCNC(=N)N)C(=O)N[C@H]1Cc2ccccc2CN(CCC(=O)N[C@@H](CCCNC(=N)N)C(=O)N[C@@H](CCCNC(=N)N)C(=O)N2CCC[C@H]2C(=O)N2Cc3ccc(O)cc3C[C@H]2C(=O)N[C@H](C(=O)N[C@@H](CC(C)C)C(=O)O)C(C)(C)C)C1=O (H-[Dmt][dR][X1]RRP[X2][Tle]L-OH)	Delta-type opioid receptor (Homo sapiens, UniProt P41143)	105

###

Target: Delta-type opioid receptor (Homo sapiens)
Assay: Agonist activity at human DOR stably expressed in CHO cell membranes assessed as stimulation of [35S]-GTPgammaS binding incubated for 1 hr by liquid scintillation counting assay
pEC50: −log10 of the molar value. Numbered stars: 1 amine (or outer) side, 2 acyl side, 3 side chain; on linkers, the order of the positions; unused ones are H or OH. Square brackets hold non-standard residues; d marks the D form. Peptide text beside a SMILES is read from it. X1 = O=C1[C@@H](N[*:1])Cc2ccccc2CN1CCC(=O)[*:2]; X2 = O=C([C@@H]1Cc2cc(O)ccc2CN1[*:1])[*:2]; Dmt = Cc1cc(O)cc(C)c1C[C@H](N)C(=O)O; mTyr = N[C@@H](Cc1cccc(O)c1)C(=O)O; β3hR = N=C(N)NCCC[C@H](N)CC(=O)O; Tle = CC(C)(C)[C@H](N)C(=O)O; β3hK = NCCCC[C@H](N)CC(=O)O

molecule	pEC50
Cc1cc(O)cc(C)c1C[C@H](N)C(=O)N[C@H](CCCNC(=N)N)C(=O)N[C@H]1Cc2ccccc2CN(CCC(=O)N[C@@H](CCCNC(=N)N)C(=O)N[C@@H](CCCNC(=N)N)C(=O)N2CCC[C@H]2C(=O)N[C@@H](Cc2cccc(O)c2)C(=O)N[C@H](C(=O)N[C@@H](CC(C)C)C(=O)O)C(C)(C)C)C1=O (H-[Dmt][dR][X1]RRP[mTyr][Tle]L-OH)	6.75
Cc1cc(O)cc(C)c1C[C@H](NC(=O)[C@@H]1CCCN1C(=O)[C@H](CCCNC(=N)N)NC(=O)C[C@H](CCCNC(=N)N)NC(=O)CCN1Cc2ccccc2C[C@H](NC(=O)[C@@H](CCCNC(=N)N)NC(=O)[C@@H](N)Cc2c(C)cc(O)cc2C)C1=O)C(=O)N[C@H](C(=O)N[C@@H](CC(C)C)C(=O)O)C(C)(C)C (H-[Dmt][dR][X1][β3hR]RP[Dmt][Tle]L-OH)	6.52
Cc1cc(O)cc(C)c1C[C@H](NC(=O)[C@@H]1CCCN1C(=O)[C@H](CCCCN)NC(=O)[C@H](CCCCN)NC(=O)CCN1Cc2ccccc2C[C@H](NC(=O)[C@@H](CCCNC(=N)N)NC(=O)[C@@H](N)Cc2c(C)cc(O)cc2C)C1=O)C(=O)N[C@H](C(=O)N[C@@H](CC(C)C)C(=O)O)C(C)(C)C (H-[Dmt][dR][X1]KKP[Dmt][Tle]L-OH)	6.05
Cc1cc(O)cc(C)c1C[C@H](N)C(=O)N[C@H](CCCNC(=N)N)C(=O)N[C@H]1Cc2ccccc2CN(CCC(N)=O)C1=O	8.90
Cc1cc(O)cc(C)c1C[C@H](NC(=O)[C@@H]1CCCN1C(=O)[C@H](CCCNC(=N)N)NC(=O)[C@H](CCCNC(=N)N)NC(=O)CCN1Cc2ccccc2C[C@H](NC(=O)[C@@H](CCCNC(=N)N)NC(=O)[C@@H](N)Cc2c(C)cc(O)cc2C)C1=O)C(=O)N[C@H](C(=O)N[C@@H](CC(C)C)C(=O)O)C(C)(C)C (H-[Dmt][dR][X1]RRP[Dmt][Tle]L-OH)	6.50
Cc1cc(O)cc(C)c1C[C@H](N)C(=O)N[C@H](CCCNC(=N)N)C(=O)N[C@H]1Cc2ccccc2CN(CCC(=O)N[C@@H](CCCCN)C(=O)N[C@@H](CCCCN)C(=O)N2CCC[C@H]2C(=O)N[C@@H](Cc2cccc(O)c2)C(=O)N[C@H](C(=O)N[C@@H](CC(C)C)C(=O)O)C(C)(C)C)C1=O (H-[Dmt][dR][X1]KKP[mTyr][Tle]L-OH)	6.34
Cc1cc(O)cc(C)c1C[C@H](N)C(=O)N[C@H](CCCNC(=N)N)C(=O)N[C@H]1Cc2ccccc2CN(CCC(=O)N[C@@H](CCCNC(=N)N)C(=O)N[C@@H](CCCNC(=N)N)C(=O)N2CCC[C@H]2C(=O)N2Cc3ccc(O)cc3C[C@H]2C(=O)N[C@H](C(=O)N[C@@H](CC(C)C)C(=O)O)C(C)(C)C)C1=O (H-[Dmt][dR][X1]RRP[X2][Tle]L-OH)	6.64
Cc1cc(O)cc(C)c1C[C@H](N)C(=O)N[C@H](CCCNC(=N)N)C(=O)N[C@H]1Cc2ccccc2CN(CCC(=O)N[C@@H](CCCCN)C(=O)N[C@@H](CCCCN)C(=O)N2CCC[C@H]2C(=O)N[C@@H](Cc2ccc(O)cc2)C(=O)N[C@H](C(=O)N[C@@H](CC(C)C)C(=O)O)C(C)(C)C)C1=O (H-[Dmt][dR][X1]KKPY[Tle]L-OH)	5.88
Cc1cc(O)cc(C)c1C[C@H](N)C(=O)N[C@H](CCCCN)C(=O)N[C@@H](Cc1ccccc1)C(=O)N[C@@H](Cc1ccccc1)C(=O)N[C@@H](CCCCN)C(=O)N[C@@H](CCCCN)C(=O)N1CCC[C@H]1C(=O)N[C@@H](Cc1ccccc1)C(=O)N[C@H](C(=O)N[C@@H](CC(C)C)C(=O)O)C(C)(C)C (H-[Dmt][dK]FFKKPF[Tle]L-OH)	6.32
Cc1cc(O)cc(C)c1C[C@H](NC(=O)[C@@H]1CCCN1C(=O)[C@H](CCCCN)NC(=O)C[C@H](CCCCN)NC(=O)CCN1Cc2ccccc2C[C@H](NC(=O)[C@@H](CCCNC(=N)N)NC(=O)[C@@H](N)Cc2c(C)cc(O)cc2C)C1=O)C(=O)N[C@H](C(=O)N[C@@H](CC(C)C)C(=O)O)C(C)(C)C (H-[Dmt][dR][X1][β3hK]KP[Dmt][Tle]L-OH)	6.61
Cc1cc(O)cc(C)c1C[C@H](N)C(=O)N[C@H](CCCNC(=N)N)C(=O)N[C@H]1Cc2ccccc2CN(CCC(=O)N[C@@H](CCCCN)C(=O)N[C@@H](CCCCN)C(=O)N2CCC[C@H]2C(=O)N2Cc3ccc(O)cc3C[C@H]2C(=O)N[C@H](C(=O)N[C@@H](CC(C)C)C(=O)O)C(C)(C)C)C1=O (H-[Dmt][dR][X1]KKP[X2][Tle]L-OH)	6.07
Cc1cc(O)cc(C)c1C[C@H](N)C(=O)N[C@H](CCCNC(=N)N)C(=O)N[C@H]1Cc2ccccc2CN(CCC(=O)N[C@@H](CCCNC(=N)N)C(=O)N[C@@H](CCCNC(=N)N)C(=O)N2CCC[C@H]2C(=O)N[C@@H](Cc2ccc(O)cc2)C(=O)N[C@H](C(=O)N[C@@H](CC(C)C)C(=O)O)C(C)(C)C)C1=O (H-[Dmt][dR][X1]RRPY[Tle]L-OH)	6.52

Provenance of the data: ChEMBL document CHEMBL4699489
